assayed system: T1, human full-length Notch3 with C-terminal FLAG tag, stably expressed on 293 FlpIn (TREx) cells (human, UniProt Q9UM47 40-2321)
T1 construct: whole, on cells; made by the same strategy as the Notch1 line; also called 293-N3; hN3
protocol notes: FACS, phage scFv
outcome measure: binding result

[[record]]
binder = "N1wc586 (scFv, V domains shown, phage scFv) VH: QVQLVQSGPEVKKPGASVKVSCKAAGYTFPDFYMHWVRQAPGKGPEWVGWINSNSGSTRLAERLEGRVTLTRDTSISTAYMELTSLTSDDTAVYYCARGAYDYVWGTSRYVADAFDIWGQGTLVTVSP VL: DIVMTQSPSTLSASVGDRVTITCRASQGISSWLAWYQQKPGRAPKVLIYKASTLESGVPSRFSGSGSGTDFTLTISSLQPEDFATYYCQQSYSTPWTFGQGTKLEIK"
experimental_value = "binds"

[[record]]
binder = "N1wc21 (scFv, V domains shown, phage scFv) VH: QVQLVESGAEVKKPGASVKVSCKASGYTFTDHYIQWLRQAPGQGLEWMGWMNPKSGGTNYAQKFQGRVTLTRDTSISTAYMDLSGLRFDDTAIYFCASDPTIPPSPNYDYYYYAMDLWGKGTLVTVSS VL: SYELTQPPSVSVSPGQTARITCSGDALPDKYVHWYQQKSGQAPVLVLFDDSKRPSGIPERFSGSSSGTVATLIISGAQVEDEGDFFCYSTDSSGNERVFGGGTKLTVL"
experimental_value = "binds"

[[record]]
binder = "hN1S3-127 (scFv, V domains shown, phage scFv) VH: EVQLVQSGAEVKKPGASVKVSCKASGYNFTGYYMHWVRQAPGQGLEWMGWINPNSGGTNYAQKFQGRVTMTRDTSISTAYMELSRLRSDDTAVYYCATDSFDYWGQGTLVTVSS VL: QSVLTQPPSVSGAPGQRVTISCSGSTSNIGGNPVTWYQQFPGTAPKLLVYRDNQRPSGVADRFSGSRSGTSASLAISGLQSEDEADFYCASWDDSLGGVVFGGGTKLTVL"
experimental_value = "binds"

[[record]]
binder = "hN1S3-091 (scFv, V domains shown, phage scFv) VH: EVQLVQSGAEVKKPGASVKVSCKASGYNFTGYYMHWVRQAPGQGLEWMGWINPNSGGTNYAQKFQGRVTMTRDTSISTAYMELSRLRSDDTAVYYCATDSFDYWGQGTMVTVSS VL: QSVLTQPPSATGTPGQTVSISCSGGNSNIGSNYVSWYQQLPGTAPKLLIYSNNQRPSGVPDRFSGSKSGTSASLAISGLQSEDEADYYCAAWDDSLNGHIFGTGTKLTVL"
experimental_value = "binds"


Asked: What does the data say about its binding result? Entry: N1wc301 (scFv, V domains shown, phage scFv) VH: QVQLQQSGAEVKKPGASVKVSCKASGYIFGTYAIHWVRQAPGQSLEWMGWINAGTGNTKYSQKFQGRVTITMDTSATTAYMELSSLRSGDTAVYYCTRGDYYDSRGYYNRFDYWGRGTLVTVSS VL: QSVVTQPPSASGTPGQRVTISCSGSSSNIGKNNVYWYQQLPGAAPKLLIYRNHERASGVPDRFSGSKSGTSASLAISGLQSEDEADYYCAARDDSLNGYVFGTGTKVTVL
Given back: binds

Asked: What does the data say about its binding result? Entry: hN1S3-053 (scFv, V domains shown, phage scFv) VH: EVQLVQSGAEVKKPGASVKVSCKASGYNFTGYYMHWVRQAPGQGLEWMGWINPNSGGTNYAQKFQGRVTMTRDTSISTAYMELSRLRSDDTAVYYCATDSFDYWGRGTTVTVSS VL: QAVLTQPSSVSGAPGQRVTISCTGSRSNIGAGYDVHWYQQLPGTAPKLLIYGNSNRPSGVPDRFSGSKSGTSASLAITGLQAEDEADYYCQSYDSSLSGSVFGGGTKLTVL
Given back: binds

Asked: What does the data say about its binding result? Entry: hN1S3-133 (scFv, V domains shown, phage scFv) VH: QVQLVQSGPEVKKPGTSVKVSCKASGFTFTSSAVQWVRQARGQRLEWIGWIVVGSGNTNYAQKFQERVTITRDMSTSTAYMELSSLRSEDTAVYYCVADTVYWGQGTLVTVSS VL: QSVLTQPPSVSEAPRQRVTISCSGSSSNIGNNAVNWYQQLPGEAPKLLIYYDDLLPSGVSDRFSGSKSGSSASLAISGLQAEDEADYYCATWDDSLNAWVFGGGTKVTVL
Given back: binds

// provenance: patent US20110286916A1
